Sourced from patent US6734206B1

Molecular target: hEP4 (Homo sapiens, UniProt P35408)
Construct: expressed in transfected cells
Sequence (P35408 whole entry): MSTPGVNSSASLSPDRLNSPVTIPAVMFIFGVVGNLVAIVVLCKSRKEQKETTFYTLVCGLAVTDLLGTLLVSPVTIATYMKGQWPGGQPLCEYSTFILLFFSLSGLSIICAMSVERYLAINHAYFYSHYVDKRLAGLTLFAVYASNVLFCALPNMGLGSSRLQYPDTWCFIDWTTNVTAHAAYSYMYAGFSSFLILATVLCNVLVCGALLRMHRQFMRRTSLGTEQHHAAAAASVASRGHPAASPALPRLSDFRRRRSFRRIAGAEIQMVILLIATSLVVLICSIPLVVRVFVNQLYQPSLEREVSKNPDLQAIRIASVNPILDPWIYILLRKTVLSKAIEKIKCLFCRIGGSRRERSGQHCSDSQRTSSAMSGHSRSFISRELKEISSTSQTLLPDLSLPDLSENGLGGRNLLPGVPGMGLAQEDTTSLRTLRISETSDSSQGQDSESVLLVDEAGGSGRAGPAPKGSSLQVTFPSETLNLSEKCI
Assay: Functional data, human EP4 receptor
Type: cell-based
Details: NA = not active
For each record, write down the corresponding EC50.

Data point: O=C(O)COCCCCN1C(=O)CC[C@@H]1CC[C@H](O)Cc1cccc(Cl)c1 (stereo in doubt) ; EC50 = 192 nM

Data point: COC(=O)COCCCCN1C(=O)CC[C@@H]1/C=C/C(=O)Cc1cccc(Cl)c1 ; EC50 = 61 nM

Data point: O=C(O)COCCCCN1C(=O)CC[C@@H]1/C=C/[C@H](O)Cc1cccc(Cl)c1 ; EC50 = 11 nM

Data point: O=C(O)COCCCCN1C(=O)CCC1CCC(=O)Cc1cccc(Cl)c1 (stereo in doubt) ; EC50 = 1720 nM

Data point: COC(=O)COCCCCN1C(=O)CCC1CCC(=O)Cc1cccc(Cl)c1 (stereo in doubt) ; EC50 = > 10000 nM

Data point: COC(=O)COCCCCN1C(=O)CC[C@@H]1CC[C@H](O)Cc1cccc(Cl)c1 (stereo in doubt) ; EC50 = 1780 nM

Data point: COC(=O)COCCCCN1C(=O)CC[C@@H]1/C=C/[C@H](O)Cc1cccc(Cl)c1 ; EC50 = > 10000 nM

---

Molecular target: hEP3A (Homo sapiens, UniProt P43115)
Construct: expressed in transfected cells
Sequence (P43115 whole entry): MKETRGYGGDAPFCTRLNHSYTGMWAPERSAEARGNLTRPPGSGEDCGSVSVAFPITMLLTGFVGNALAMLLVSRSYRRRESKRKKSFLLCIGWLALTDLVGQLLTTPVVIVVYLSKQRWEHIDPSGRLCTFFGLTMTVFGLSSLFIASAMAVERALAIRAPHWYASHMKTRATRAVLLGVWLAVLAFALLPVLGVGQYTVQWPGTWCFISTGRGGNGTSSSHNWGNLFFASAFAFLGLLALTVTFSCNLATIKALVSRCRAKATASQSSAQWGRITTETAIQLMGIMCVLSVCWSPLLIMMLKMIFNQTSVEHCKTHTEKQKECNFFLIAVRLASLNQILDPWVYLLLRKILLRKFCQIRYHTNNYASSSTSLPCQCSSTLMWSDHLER
Test: Functional data, human EP3A receptor
Assay type: cell-based
Details: NA = not active
Measured Attribute: EC50

Test item O=C(O)COCCCCN1C(=O)CC[C@@H]1/C=C/C(=O)Cc1cccc(Cl)c1 [Example 2] ; hEP3A (Homo sapiens, UniProt P43115); reported EC50 was > 10000 nM

---

Target: hTP (Homo sapiens, UniProt P21731)
Construct: expressed in transfected cells
Sequence (P21731 whole entry): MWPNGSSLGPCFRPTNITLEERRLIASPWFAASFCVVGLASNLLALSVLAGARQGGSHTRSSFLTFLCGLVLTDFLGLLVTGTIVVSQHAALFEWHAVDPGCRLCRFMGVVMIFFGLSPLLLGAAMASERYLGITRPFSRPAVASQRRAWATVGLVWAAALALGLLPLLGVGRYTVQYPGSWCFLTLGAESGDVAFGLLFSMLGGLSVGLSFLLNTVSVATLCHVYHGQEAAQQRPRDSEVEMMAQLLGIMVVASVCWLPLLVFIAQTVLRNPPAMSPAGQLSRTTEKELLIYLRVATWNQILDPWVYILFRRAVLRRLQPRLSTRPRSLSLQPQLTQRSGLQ
Test: Functional data, human TP receptor
Format: cell-based
Settings: NA = not active
Protocol: Plasmids encoding the human EP1, EP2, EP3, EP4, FP, TP, IP and DP receptors were prepared by cloning the respective coding sequences into the eukaryotic expression vector pCEP4 (Invitrogen). The pCEP4 vector contains an Epstein Barr virus (EBV) origin of replication, which permits episomal replication in primate cell lines expressing EBV nuclear antigen (EBNA-1). It also contains a hygromycin resistance gene that is used for eukaryotic selection. […]
Measured Attribute: EC50

Data point: COC(=O)COCCCCN1C(=O)CCC1CCC(=O)Cc1cccc(Cl)c1 (stereo in doubt) ; EC50 = > 10000 nM

Data point: O=C(O)COCCCCN1C(=O)CCC1CCC(=O)Cc1cccc(Cl)c1 (stereo in doubt) ; EC50 = > 10000 nM

Data point: O=C(O)COCCCCN1C(=O)CC[C@@H]1CC[C@H](O)Cc1cccc(Cl)c1 (stereo in doubt) ; EC50 = > 10000 nM

Data point: O=C(O)COCCCCN1C(=O)CC[C@@H]1/C=C/[C@H](O)Cc1cccc(Cl)c1 ; EC50 = > 10000 nM

Data point: O=C(O)COCCCCN1C(=O)CC[C@@H]1/C=C/C(=O)Cc1cccc(Cl)c1 ; EC50 = < 10000 nM
